Listing of entries alongside the reported PBM binding z-score.
- System: PPARa:RXRa (NR concentration 270 nM, RXRa partner concentration 90 nM)
- Method Summary: PBM binding z-score (relative to random genomic background probes); higher = stronger binding; sequences stand for … in GC…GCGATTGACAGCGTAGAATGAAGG

Item Sequence	PBM binding z-score
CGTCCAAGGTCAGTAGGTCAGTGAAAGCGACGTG	5.1
ATATGTAGGTGACATCCGGGTCATTCAGGCTATG	5.01
TCTAGCCGGCCAGAGGGTCACTCAAGAGGTACGG	2.03
CGTCCAAGGTCAATGCTAGGTCAGTGATAGCATT	5.03
